assay-info: FAERS disproportionality analysis
conditions-used: FAERS Nov 1997 to March 31, 2015; torsades de pointes; EB05 > 2 = signal
Could you mark each record criterion met if its EB05 TdP falls strictly under 20, and criterion not met if it equals or exceeds it?

INSERT INTO assay_data (compound, answer_label) VALUES
  ('O=c1[nH]c2ccccc2n1C1CCN(CCCC(c2ccc(F)cc2)c2ccc(F)cc2)CC1 [PIMOZIDE]', 'criterion met'),
  ('CCCCCCCN(CC)CCCC(O)c1ccc(NS(C)(=O)=O)cc1 (centres unmarked) [IBUTILIDE]', 'criterion not met'),
  ('COc1ccc(CCN2CCC(Nc3nc4ccccc4n3Cc3ccc(F)cc3)CC2)cc1', 'criterion met'),
  ('CC(C)NCC(O)c1ccc(NS(C)(=O)=O)cc1 (racemic)', 'criterion not met'),
  ('CN1CCN(C2=Nc3cc(Cl)ccc3Nc3ccccc32)CC1', 'criterion met'),
  ('COc1cc(N)c(Cl)cc1C(=O)NC1CCN(CCCOc2ccc(F)cc2)CC1OC (centres unmarked) [CISAPRIDE]', 'criterion not met'),
  ('CCC(=O)C(CC(C)N(C)C)(c1ccccc1)c1ccccc1 (centres unmarked)', 'criterion not met'),
  ('CC(C)(C)c1ccc(C(O)CCCN2CCC(C(O)(c3ccccc3)c3ccccc3)CC2)cc1 (centres unmarked)', 'criterion not met'),
  ('O=c1[nH]c2ccccc2n1CCCN1CCC(n2c(=O)[nH]c3cc(Cl)ccc32)CC1', 'criterion met'),
  ('COCCc1ccc(OCC(O)CNC(C)C)cc1 (centres unmarked)', 'criterion met'),
  ('CN1CCN(CCCCN2C(=O)CN(/N=C/c3ccc(-c4ccc(Cl)cc4)o3)C2=O)CC1 [AZIMILIDE]', 'criterion not met'),
  ('CC[C@H]1OC(=O)[C@H](C)[C@@H](O[C@H]2C[C@@](C)(OC)[C@@H](O)[C@H](C)O2)[C@H](C)[C@@H](O[C@@H]2O[C@H](C)C[C@H](N(C)C)[C@H]2O)[C@](C)(OC)C[C@@H](C)C(=O)[C@H](C)[C@@H](O)[C@]1(C)O', 'criterion met'),
  ('COc1ccccc1OCC(O)CN1CCN(CC(=O)Nc2c(C)cccc2C)CC1 (centres unmarked)', 'criterion not met'),
  ('CCOC(=O)N1CCC(=C2c3ccc(Cl)cc3CCc3cccnc32)CC1', 'criterion met'),
  ('CCOC(=O)C1=C(C)NC(C)=C(C(=O)OC)C1c1cccc([N+](=O)[O-])c1 (centres unmarked)', 'criterion met'),
  ('COc1ccc(CCN(C)CCCC(C#N)(c2ccc(OC)c(OC)c2)C(C)C)cc1OC (centres unmarked)', 'criterion met'),
  ('Cc1nc2n(c(=O)c1CCN1CCC(c3noc4cc(F)ccc34)CC1)CCCC2', 'criterion met');

Source listed as paper PMC7659582.
